Readings of inhibition of growth at 5 µM for the listed compounds
# Test system: P. falciparum 3D7
# method: DAPI stain fluorescent high content imaging assay, P. falciparum 3D7 (confirmatory screen, Avery)
# conditions used: Plasmodium falciparum, 3D7, read-out: percent_inh @ 5 uM
Value expressed in %; do not type the unit.

Look over these answered cases.
compound	measured quantity	result unit	experimental result
Cc1cc(=O)oc2c1ccc1oc(C(=O)c3ccccc3)c(C)c12	inhibition of growth at 5 µM	%	94
COc1ccc2nc(N)nc(C)c2c1	inhibition of growth at 5 µM	%	63
COc1ccc(C=C2SC(=N)N(c3ccccc3OC)C2=O)cc1	inhibition of growth at 5 µM	%	97

Field inhibition of growth at 5 µM (entry C=CCc1c(C)nc2ccccc2c1O ) reads 85

Field inhibition of growth at 5 µM (entry CCn1c(SCC(=O)Nc2cc(C(F)(F)F)ccc2Cl)nc2ccccc2c1=O ) reads 91

Field inhibition of growth at 5 µM (entry O=C(NCC1Cc2cccc(-c3ccncc3)c2O1)c1csc2c1CCCC2 (stereo not drawn) ) reads 87

Field inhibition of growth at 5 µM (entry Cc1ccc(Cl)cc1N1CCN(CCCNC(=O)C2CCN(c3nc4ccccc4[nH]3)CC2)CC1 ) reads 97

Field inhibition of growth at 5 µM (entry CC(C)(C)c1ccc(C(=O)Nc2c3c(nn2-c2cccc(Cl)c2)CSC3)cc1 ) reads 93

Field inhibition of growth at 5 µM (entry O=[N+]([O-])c1ccc(C=NNc2nc3ccccc3[nH]2)cc1 ) reads 99

====

# System: P. falciparum 3D7
# method: DAPI stain fluorescent high content imaging assay, P. falciparum 3D7 (confirmatory screen, Avery)
# conditions used: Plasmodium falciparum, 3D7, read-out: percent_inh @ 5 uM
measured quantity: inhibition of growth at 5 µM (%)
Value expressed in %; do not type the unit.

Look over these answered cases.
compound	result unit	experimental result
O=C(CSc1ccc2nnc(-c3cccc(F)c3)n2n1)Nc1ccc2c(c1)OCO2	%	92
CCOC(=O)C1(Cc2ccccc2)CCN(Cc2cccc(OC)c2O)CC1	%	95
CC(C)CCNCC(O)Cn1c2ccccc2c2ccccc21 (centres unmarked)	%	97
Oc1ccc(C(=C(Cl)Cl)c2ccc(O)cc2)cc1	%	95
Oc1ccccc1CN1CCC2(CCCN(Cc3ccccc3F)C2)C1 (centres unmarked)	%	98

Field inhibition of growth at 5 µM (entry OC(CNCc1ccccc1)Cn1c2ccccc2c2ccccc21 (centres unmarked) ) reads 95

Field inhibition of growth at 5 µM (entry CCCCCCC(O)(c1ccc(F)cc1)C(CN1CCOCC1)c1ccccc1 (centres unmarked) ) reads 93

Field inhibition of growth at 5 µM (entry CCOc1cc2c(cc1OCC)C(c1cc(Cl)c(O)c(OCC)c1)NCC2 (centres unmarked) ) reads 96

====

# Test system: P. falciparum 3D7
# method: DAPI stain fluorescent high content imaging assay, P. falciparum 3D7 (confirmatory screen, Avery)
# conditions used: Plasmodium falciparum, 3D7, read-out: percent_inh @ 5 uM
measured quantity: inhibition of growth at 5 µM (%)
Value expressed in %; do not type the unit.

Look over these answered cases.
molecule	inhibition of growth at 5 µM / %
Oc1ccccc1CN1CCN(C(c2ccccc2)c2ccccc2)CC1	97
Cc1ccc(S(=O)(=O)c2c(COC(=O)c3cccc(C)c3)c(-c3ccccc3)nn2C)cc1	95
CNCCCNc1ccnc2cc(Cl)ccc12	98
O=C(NC(c1ccccc1)c1ccc2cccnc2c1O)c1ccccc1 (stereo not drawn)	95
COc1ccccc1CNC(=O)CCn1c(=O)[nH]c2ccsc2c1=O	67

CCCCCCc1cc(O)c2c3c(c(=O)oc2c1)CCC(C)C3 (stereo not drawn) tested on P. falciparum 3D7 gave inhibition of growth at 5 µM: 96

COc1ccc(C=C2SC(Nc3ccccc3)=NC2=O)cc1 tested on P. falciparum 3D7 gave inhibition of growth at 5 µM: 71

CCOc1ccc(-c2nonc2NC(=O)c2cccc(C)c2)cc1OCC tested on P. falciparum 3D7 gave inhibition of growth at 5 µM: 86

O=C1c2ccccc2C2=Nc3ccccc3SC(c3cccc(F)c3)C12 (stereo not drawn) tested on P. falciparum 3D7 gave inhibition of growth at 5 µM: 94

====

# Tested on: P. falciparum 3D7
# method: DAPI stain fluorescent high content imaging assay, P. falciparum 3D7 (confirmatory screen, Avery)
# conditions used: Plasmodium falciparum, 3D7, read-out: EC50_nM
Readings of pEC50 for the listed compounds
On this scale, pEC50 is minus log10 of a concentration expressed in M (mol/L).

compound	pEC50
OC(CNCc1ccccc1)Cn1c2ccccc2c2ccccc21 (centres unmarked) [MMV000839]	5.97

Field pEC50 (entry Cc1nc2ccccc2c(O)c1CC=C(Cl)Cl [MMV665994] ) reads 6.08

====

# Test system: P. falciparum 3D7
# method: DAPI stain fluorescent high content imaging assay, P. falciparum 3D7 (confirmatory screen, Avery)
# conditions used: Plasmodium falciparum, 3D7, read-out: EC50_nM
Readings of EC50 for the listed compounds

Look over these answered cases.
compound	measured on	experimental result
CC1CCN(Cc2c(O)ccc3cc(-c4nc5ccccc5s4)c(=O)oc23)CC1 [MMV009127]	P. falciparum 3D7	1130 nM
CCOC(=O)c1cnc2ccc(CC)cc2c1O [MMV007116]	P. falciparum 3D7	351 nM
O=C(O)C1Cc2c([nH]c3ccccc23)C(c2ccc(Cl)cc2Cl)N1 (centres unmarked) [MMV008138]	P. falciparum 3D7	350 nM
Cc1ccc(Cl)cc1N1CCN(CCCNC(=O)C2CCN(c3nc4ccccc4[nH]3)CC2)CC1 [MMV019746]	P. falciparum 3D7	1330 nM

Here is the next item to consider.
Field EC50 (entry COc1ccc(C(=O)C2CC2c2ccc(Cl)cc2)cc1 (centres unmarked) [MMV665924] ) reads 1060 nM

====

# Tested on: P. falciparum 3D7
# method: DAPI stain fluorescent high content imaging assay, P. falciparum 3D7 (confirmatory screen, Avery)
# conditions used: Plasmodium falciparum, 3D7, read-out: percent_inh @ 5 uM
measured quantity: inhibition of growth at 5 µM (%)
Value expressed in %; do not type the unit.

Look over these answered cases.
compound	result unit	inhibition of growth at 5 µM
COc1ccc(C(O)(CCC(C)C)C(CN2CCOCC2)c2ccc(Cl)cc2)cc1 (stereo not drawn)	%	97
CCOC(=O)c1cnc2ccc(OC)cc2c1NCc1ccccc1	%	87
COc1ccc(C2N(C)c3ccccc3N2C)cc1	%	62
Cc1ccc(Nc2nc(-c3ccccn3)cs2)cc1	%	79
CCOc1c(Br)cc(C2C(C(=O)OC)=CN(C)C=C2C(=O)OC)cc1OC	%	96

Field inhibition of growth at 5 µM (entry CN(C)c1ccc(N=Cc2ccc(N3CCOCC3)cc2)cc1 ) reads 96

====

Readings of inhibition of growth at 5 µM for the listed compounds
# Test system: P. falciparum 3D7
# method: DAPI stain fluorescent high content imaging assay, P. falciparum 3D7 (confirmatory screen, Avery)
# conditions used: Plasmodium falciparum, 3D7, read-out: percent_inh @ 5 uM
Value expressed in %; do not type the unit.

Look over these answered cases.
compound	experimental result
CCOc1ccccc1CNC(=O)C1c2ccccc2C(=O)N(CC(C)C)C1c1cccs1 (stereo not drawn)	97
CCC(C)NCC(O)(c1ccc(Cl)cc1)c1ccc(Cl)cc1 (stereo not drawn)	98
OC(CNC1CCCC1)Cn1c2ccccc2c2ccccc21 (stereo not drawn)	97
CCCCCCc1cc2cc(-c3csc(C=Cc4ccccc4)n3)c(=O)oc2cc1O	92
CCOC(=O)C1CCN(C(=O)CN2C(=O)c3ccccc3C2c2c[nH]c3ccccc23)CC1 (stereo not drawn)	98
O=C(c1ccccc1F)N(Cc1ccc(Cl)cc1)c1ccccn1	59
Cc1c(C)n(Cc2ccc(F)cc2)c2ccc(C(=O)NCc3ccco3)cc12	52
COc1cccc(C(=O)NC(c2ccc(C)cc2)c2cc(Cl)c3cccnc3c2O)c1 (stereo not drawn)	97

Field inhibition of growth at 5 µM (entry CCOC(=O)c1ccc2nc(-c3ccccc3)cc(O)c2c1 ) reads 96

Field inhibition of growth at 5 µM (entry CCOc1ccc(-c2nc(NC(=O)c3cccc(S(C)(=O)=O)c3)sc2C)cc1 ) reads 95

====

# System: P. falciparum 3D7
# method: DAPI stain fluorescent high content imaging assay, P. falciparum 3D7 (confirmatory screen, Avery)
# conditions used: Plasmodium falciparum, 3D7, read-out: EC50_nM
Readings of pEC50 for the listed compounds
On this scale, pEC50 is minus log10 of a concentration expressed in M (mol/L).

Look over these answered cases.
compound	experimental result
COc1cc2c(cc1OC)C1=NNC(=O)C1=NC(C)(C)C2	5.98
Oc1ccc(-c2nc(-c3ccc4oc5ccc(-c6[nH]c(-c7ccc(O)cc7)nc6-c6ccccc6)cc5c4c3)c(-c3ccccc3)[nH]2)cc1	6.49
COc1ccc(-c2c(C)nn3c(N)c(C#N)cnc23)cc1OC	6.32
COc1ccc(NC(=O)C2c3ccccc3C(=O)N(CC(C)C)C2c2cccs2)cc1 (centres unmarked)	7.44
CCCN(CCC)CCCNC(=O)c1cc2c(-c3ccc(OC)c(OC)c3)nn(C)c2s1	5.84

Field pEC50 (entry COc1ccc(CCNC(=O)c2cc(S(=O)(=O)N3CC(C)CC(C)C3)ccc2Sc2ccc(F)cc2)cc1OC (centres unmarked) ) reads 6.20

Field pEC50 (entry O=C(CSc1nccn2nc(-c3ccccc3)cc12)Nc1cc(C(F)(F)F)ccc1Cl ) reads 6.66
